Please respond with reported fraction unbound for every item in the list.
# Experimental Protocol: Fraction unbound in CD-1 mouse plasma
# Type: ADME, cell-free
Keep it simple and answer with nothing but the number.

Query O=c1[nH]ccc2cc(F)c(NS(=O)(=O)c3ccc(N4C[C@@H](O)[C@@H](F)C4)s3)cc12 (stereo in doubt) yields fraction unbound of 0.05

So for `O=c1[nH]ccc2cc(F)c(NS(=O)(=O)c3ccc(N4CCC(O)CC4)s3)cc12` , the logged fraction unbound turned out to be 0.05

---

# Tested System: Bifunctional purine biosynthesis protein ATIC (Homo sapiens, UniProt P31939)
# Sequence (P31939 whole entry): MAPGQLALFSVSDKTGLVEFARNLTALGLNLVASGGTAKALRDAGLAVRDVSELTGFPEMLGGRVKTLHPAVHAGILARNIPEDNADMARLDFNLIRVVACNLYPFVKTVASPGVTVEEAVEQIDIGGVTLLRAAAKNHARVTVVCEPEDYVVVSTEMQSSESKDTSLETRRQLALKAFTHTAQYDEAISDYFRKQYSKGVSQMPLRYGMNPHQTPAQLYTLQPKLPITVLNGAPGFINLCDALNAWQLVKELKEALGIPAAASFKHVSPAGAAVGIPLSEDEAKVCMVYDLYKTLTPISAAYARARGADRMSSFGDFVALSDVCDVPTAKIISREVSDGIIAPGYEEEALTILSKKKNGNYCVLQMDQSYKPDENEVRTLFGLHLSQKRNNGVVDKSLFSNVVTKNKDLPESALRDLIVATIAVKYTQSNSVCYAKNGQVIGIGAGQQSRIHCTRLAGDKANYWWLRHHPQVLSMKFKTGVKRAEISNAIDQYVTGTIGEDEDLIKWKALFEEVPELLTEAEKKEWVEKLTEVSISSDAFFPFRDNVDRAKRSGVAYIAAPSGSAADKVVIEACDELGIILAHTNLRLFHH
# Experimental Protocol: Inhibition of human full length N-terminal His-tagged AICARFT expressed in Escherichia coli BL21 (DE3) using ZMP/10-formyltetrahydrofolate as substrate assessed as decrease in IMP levels after 1 hr by mass spectrometric method
pIC50: −log10 of the molar value.
Quantity: pIC50

pIC50 recorded for this compound, `N#Cc1ccc(S(=O)(=O)Nc2ccccc2)cc1` , is < 4.00

Value of pIC50 reported for the compound CCC1(C)CC(c2ccc(S(=O)(=O)Nc3cc4c(=O)[nH]ccc4cc3F)s2)=CNC1=O (centres undefined) is > 8.30

Sample `CC1(C)CC(c2ccc(S(=O)(=O)Nc3cc4c(=O)[nH]ccc4cc3F)s2)=CNC1=O` ; pIC50 observed: > 8.30

Kindly note the recorded pIC50 for `O=c1ccc(-c2ccc(S(=O)(=O)Nc3cc4c(=O)[nH]ccc4cc3F)s2)c[nH]1` , which is > 8.30
